- testName: Stability in rat plasma
- Type: in vitro ADME
- statedConditions: both sexes, pooled, SD rat plasma, EDTA, 37° C., up to 24 hours, read-out: t1/2: Rat Plasma EDTA
*1 amine or outer side, *2 acyl side, *3 side chain or, on linkers, in order; H or OH if unused. Where a SMILES comes first, the peptide text is derived from it. Bridges are numbered along the chain shown (N, C = ends). [ ]: non-standard residue; d: D form. X5 = CC(C)c1cccc(-c2cccc3c(C[C@H](N[*:1])C(=O)[*:2])c[nH]c23)c1; X2 = O=C([C@H](Cc1c[nH]c2c(-c3ccc(F)cc3)cccc12)N[*:1])[*:2]; Trp(7-Ph) = N[C@@H](Cc1c[nH]c2c(-c3ccccc3)cccc12)C(=O)O; Abu(4-yl) = O=C([C@H](CC[*:3])N[*:1])[*:2]; 2Nal = N[C@@H](Cc1ccc2ccccc2c1)C(=O)O; AEF = NCCOc1ccc(C[C@H](N)C(=O)O)cc1; Pen = CC(C)(S)[C@H](N)C(=O)O; αMeK = C[C@](N)(CCCCN)C(=O)O
Can you tell me half-life at 20 μM for the items I'm about to list?

half-life at 20 μM recorded for this compound, CC(=O)NCCCC[C@@H]1NC(=O)[C@H](Cc2c[nH]c3c(-c4ccc(F)cc4)cccc23)NC(=O)[C@H]([C@@H](C)O)NC(=O)[C@H](CC(N)=O)NC(=O)[C@@H](NC(C)=O)C(C)(C)SSC(C)(C)[C@@H](C(=O)N[C@@H](Cc2ccc(OCCN)cc2)C(=O)N[C@@H](Cc2ccc3ccccc3c2)C(=O)N[C@@](C)(CCCCN)C(=O)N[C@@H](CCCCNC(C)=O)C(=O)N[C@@H](CC(N)=O)C(=O)N[C@H](CCCCN)C(N)=O)NC1=O [Peptide 10] (Ac-[Pen]NT[X2]K(Ac)[Pen][AEF][2Nal][αMeK]K(Ac)N[dK]-NH2; disulfide 1-6) , is > 24 h

Per the records, this compound ( CC(=O)NCCCC[C@@H]1NC(=O)[C@H](Cc2c[nH]c3c(-c4ccccc4)cccc23)NC(=O)[C@H]([C@@H](C)O)NC(=O)[C@H](CCC(N)=O)NC(=O)[C@@H](NC(C)=O)CCSC[C@@H](C(=O)N[C@@H](Cc2ccc(OCCN)cc2)C(=O)N[C@@H](Cc2ccc3ccccc3c2)C(=O)N[C@@](C)(CCCCN)C(=O)N[C@@H](CCCCNC(C)=O)C(=O)N[C@@H](CC(N)=O)C(=O)N[C@H](CC(C)C)C(N)=O)NC1=O [Peptide 18] (Ac-[Abu(4-yl)]QT[Trp(7-Ph)]K(Ac)C[AEF][2Nal][αMeK]K(Ac)N[dL]-NH2; thioether 1-6) ) has half-life at 20 μM equal to > 24 h

So for CC(=O)NCCCC[C@@H]1NC(=O)[C@H](Cc2c[nH]c3c(-c4cccc(C(C)C)c4)cccc23)NC(=O)[C@H]([C@@H](C)O)NC(=O)[C@H](CC(N)=O)NC(=O)[C@@H](NC(C)=O)C(C)(C)SSC(C)(C)[C@@H](C(=O)N[C@@H](Cc2ccc(OCCN)cc2)C(=O)N[C@@H](Cc2ccc3ccccc3c2)C(=O)N[C@@](C)(CCCCN)C(=O)N[C@@H](CCCCNC(C)=O)C(=O)N[C@@H](CC(N)=O)C(=O)N[C@H](CCCCN)C(N)=O)NC1=O [Peptide 11] (Ac-[Pen]NT[X5]K(Ac)[Pen][AEF][2Nal][αMeK]K(Ac)N[dK]-NH2; disulfide 1-6) , the logged half-life at 20 μM turned out to be > 24 h

###

- testName: Stability in cynomolgus monkey fecal homogenate (anaerobic)
- Format: in vitro ADME
- statedConditions: 20% fecal homogenate (supernatant), pH 6.8, 20% cynomolgus monkey fecal homogenate, 37° C., up to 24 hours, read-out: t1/2: Monkey Feces anaerobic (converted)
*1 amine or outer side, *2 acyl side, *3 side chain or, on linkers, in order; H or OH if unused. Where a SMILES comes first, the peptide text is derived from it. Bridges are numbered along the chain shown (N, C = ends). [ ]: non-standard residue; d: D form. Trp(7-Ph) = N[C@@H](Cc1c[nH]c2c(-c3ccccc3)cccc12)C(=O)O; X4 = O=C([C@H](Cc1c[nH]c2c(-c3ccsc3)cccc12)N[*:1])[*:2]; Ala(quinolin-3-yl) = N[C@@H](Cc1cnc2ccccc2c1)C(=O)O; 2Nal = N[C@@H](Cc1ccc2ccccc2c1)C(=O)O; AEF = NCCOc1ccc(C[C@H](N)C(=O)O)cc1; Pen = CC(C)(S)[C@H](N)C(=O)O; αMeK = C[C@](N)(CCCCN)C(=O)O; Thp = NC1(C(=O)O)CCOCC1
Field: half-life at 20 μM. Provide a value for each of the compounds that follow.

The compound CC(=O)NCCCC[C@H](NC(=O)[C@](C)(CCCCN)NC(=O)[C@H](Cc1ccc2ccccc2c1)NC(=O)[C@H](Cc1ccc(OCCN)cc1)NC(=O)[C@H]1NC(=O)[C@H](CCC(N)=O)NC(=O)[C@H](Cc2c[nH]c3c(-c4ccsc4)cccc23)NC(=O)[C@H]([C@@H](C)O)NC(=O)[C@H](CC(N)=O)NC(=O)[C@@H](NC(C)=O)C(C)(C)SSC1(C)C)C(=O)N[C@@H](CC(N)=O)C(=O)N[C@H](CCCCN)C(N)=O [Peptide 2] (Ac-[Pen]NT[X4]Q[Pen][AEF][2Nal][αMeK]K(Ac)N[dK]-NH2; disulfide 1-6) showed half-life at 20 μM equal to > 24 h

Memo: CC(=O)NCCCC[C@@H]1NC(=O)[C@H](Cc2c[nH]c3c(-c4ccccc4)cccc23)NC(=O)[C@H]([C@@H](C)O)NC(=O)[C@H](CC(N)=O)NC(=O)[C@@H](NC(C)=O)C(C)(C)SSC(C)(C)[C@@H](C(=O)N[C@@H](Cc2ccc(OCCN)cc2)C(=O)N[C@@H](Cc2cnc3ccccc3c2)C(=O)NC2(C(=O)N[C@@H](CCC(=O)O)C(=O)N[C@@H](CC(N)=O)C(=O)N[C@H](CC(C)C)C(N)=O)CCOCC2)NC1=O [Peptide 15] (Ac-[Pen]NT[Trp(7-Ph)]K(Ac)[Pen][AEF][Ala(quinolin-3-yl)][Thp]EN[dL]-NH2; disulfide 1-6) , reported half-life at 20 μM: > 24 h

Reported half-life at 20 μM for CC(=O)NCCCC[C@@H]1NC(=O)[C@H](Cc2c[nH]c3c(-c4ccccc4)cccc23)NC(=O)[C@H]([C@@H](C)O)NC(=O)[C@H](CC(N)=O)NC(=O)[C@@H](NC(C)=O)C(C)(C)SSC(C)(C)[C@@H](C(=O)N[C@@H](Cc2ccc(OCCN)cc2)C(=O)N[C@@H](Cc2cnc3ccccc3c2)C(=O)NC2(C(=O)N[C@@H](CCC(=O)O)C(=O)N[C@@H](CC(N)=O)C(=O)N[C@H](CCCCN)C(N)=O)CCOCC2)NC1=O [Peptide 13] (Ac-[Pen]NT[Trp(7-Ph)]K(Ac)[Pen][AEF][Ala(quinolin-3-yl)][Thp]EN[dK]-NH2; disulfide 1-6) was > 24 h
